Test system: ATP;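 further: ATP exposure 15 min at 22 °C before imaging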
Test: switch fluorescence ratio, 500 uM ATP over buffer (Cy3 cluster intensity, sum of 5 cycles each) (fold (ratio)); higher = stronger signal-on switching upon ATP binding; sequences stand for … in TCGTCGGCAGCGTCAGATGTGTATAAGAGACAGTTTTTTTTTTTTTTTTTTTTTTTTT…TC
Settings: aptamer strand: ATP DNA aptamer (quencher-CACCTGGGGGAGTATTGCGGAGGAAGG + anchor), 100 nM annealed; ATP concentration: 500 uM
# cutoff 1 applies to switch fluorescence ratio; >= gives True, < gives False

Check if switch fluorescence ratio >= 1 (inclusive). Item: TTAAATTCGA
False

switch fluorescence ratio >= 1 for GGGGGGACTA ?
True

Does switch fluorescence ratio meet or surpass 1 for TCCTTCGGCG ?
True

Say whether CTCTCGGCCG shows switch fluorescence ratio of 1 or more.
True

Form field: switch fluorescence ratio at least 1? Entry: ACGTTGCCAG
False

Entry TTCGAAGCAC : is its switch fluorescence ratio no less than 1?
True

Could you verify whether the entry AGGGAAGCT shows switch fluorescence ratio of no less than 1?
True

Could you please find out whether TTTTGAGGAC has switch fluorescence ratio that meets 1 or exceeds it?
True

Is the recorded value of switch fluorescence ratio equal to or greater than 1 for this sequence? TTACTGGGGC
True

Decide: switch fluorescence ratio of TTCAATCTGT >= 1?
False

###

Test system: ATP;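 further: ATP exposure 15 min at 22 °C before imaging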
Assay: switch fluorescence ratio, 500 uM ATP over buffer (Cy3 cluster intensity, sum of 5 cycles each) (fold (ratio)); higher = stronger signal-on switching upon ATP binding; sequences stand for … in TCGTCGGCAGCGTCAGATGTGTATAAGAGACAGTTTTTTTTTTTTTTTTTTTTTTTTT…TC
Conditions: aptamer strand: ATP DNA aptamer (quencher-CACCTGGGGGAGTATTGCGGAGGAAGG + anchor), 100 nM annealed; ATP concentration: 500 uM
Field: switch fluorescence ratio. Provide a value for each of the sequences that follow.

Given the sequence TCTTTAATGG , what is its reported switch fluorescence ratio?
1.01

For the sequence AATGGGATTC , what switch fluorescence ratio is on record?
0.988

Fill in: switch fluorescence ratio of AACATTATGT is ___
1

Please report the recorded switch fluorescence ratio for TAGGTAGGCA .
1

Reported switch fluorescence ratio for CACTTTGGTT : what is it?
1.02

Need switch fluorescence ratio of ATTAAGAAGG , thanks.
1

###

System: ATP;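 further: ATP exposure 15 min at 22 °C before imaging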
Experiment: switch fluorescence ratio, 500 uM ATP over buffer (Cy3 cluster intensity, sum of 5 cycles each) (fold (ratio)); higher = stronger signal-on switching upon ATP binding; sequences stand for … in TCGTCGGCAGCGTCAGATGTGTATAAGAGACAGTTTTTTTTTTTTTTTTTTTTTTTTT…TC
Conditions: aptamer strand: ATP DNA aptamer (quencher-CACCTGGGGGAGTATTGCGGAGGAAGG + anchor), 100 nM annealed; ATP concentration: 500 uM
Field: switch fluorescence ratio. Provide a value for each of the sequences that follow.
Write no unit; give the number alone.

So what's the measured switch fluorescence ratio for this one? CTAACGGGCT
0.995

Endpoint output: switch fluorescence ratio of AGGCCGGAAG . Value?
0.994

For AGGGTGCGGG , what is its reported switch fluorescence ratio?
1.01

Please give the measured switch fluorescence ratio for this sequence: ACTGAGGAAA
1.01

Reported switch fluorescence ratio for AAAGGATCGG : what is it?
0.992

Form field: reported switch fluorescence ratio of ATGTTCGTTA
1.01

Tell me the measured switch fluorescence ratio of AGGACTTGAA , please.
1.02

State the recorded switch fluorescence ratio for this entry: TTTTCACTGG
1.01

Which switch fluorescence ratio is listed for ATTAAAGGTT ?
0.99

For the sequence TCATAGACGG , what switch fluorescence ratio is on record?
0.987

For the sequence GTGTCTTTGA , what switch fluorescence ratio is on record?
0.986

Consider the sequence shown here: CAGGGTGTTG What is its recorded switch fluorescence ratio?
0.964

Fill blank: measured switch fluorescence ratio of the sequence AGGGAGTTCG is ____.
0.977

Record request: switch fluorescence ratio value, item TACGAAGTCG
1.01

Given the sequence GCTGTCAGCG , what is its reported switch fluorescence ratio?
1.02

Which value of switch fluorescence ratio has been reported for GGGTGGAGGA in the records?
1.01

Tell me the measured switch fluorescence ratio of ATTAGTAG , please.
1.02

// query switch fluorescence ratio value for entry TCTGTTCA
1

# query: switch fluorescence ratio of entry GATGGGTTTC
0.987

Any idea what its switch fluorescence ratio is? The sequence is TTATGAGGCA
0.978

Consider the sequence TCTGTGTATT and give its measured switch fluorescence ratio.
1.03

Name the reported switch fluorescence ratio value associated with the sequence ACGATGTGCT
0.982

switch fluorescence ratio for TGGTAGTAGG ?
0.995

Report switch fluorescence ratio for CGGGATGTTA please.
0.996

What value of switch fluorescence ratio has been reported for the following sequence? GACGGACAGG
1.06

// returns reported switch fluorescence ratio for input AGGGAAGGAT
1.01

Request the reported switch fluorescence ratio associated with ATGTATTATA
1.01

# lookup: switch fluorescence ratio of TTTAGGCCCA
1.03

Request the reported switch fluorescence ratio associated with CTAGTAGAAG
1.01

Item under review: AAATCGTTCC . Reported switch fluorescence ratio?
2.14

Returns the measured switch fluorescence ratio for the input sequence. Input: AATAGAAGGA
0.989

Query: switch fluorescence ratio; subject: CGTTGGGGTT
1.02

Which switch fluorescence ratio value is on record for TCGAGATTAG ?
0.994

# input sequence: TCTAAGTCTT ; wanted: its switch fluorescence ratio
0.98

// lookup switch fluorescence ratio for AAAGTGTGCC
0.962

May I ask what switch fluorescence ratio has been recorded for ATTCTCACGT ?
1.06

Quick one: switch fluorescence ratio for GCTTTCCGGC ?
1.02

# switch fluorescence ratio lookup, item ACACTAGGGG
1.23

What value of switch fluorescence ratio has been reported for the following sequence? CGGCTTTGCC
0.999

Form field: reported switch fluorescence ratio of TTGGCATTTG
1.02

Fill blank: measured switch fluorescence ratio of the sequence GCATGATGCG is ____.
0.994

Return reported switch fluorescence ratio; argument: CTTATAGGTC
1.01
